This collection of values is drawn from patent US12084431B2.

- run.description: Thermodynamic aqueous solubility studies (de-ionized water, 24 h, HPLC concentration, filtrate pH, XRPD of solid)
- measurement.parameters: de-ionized water, pH 6.97, water, thermodynamic from solid
reported.endpoint: solubility at 24 h

compound: C=CC(=O)Nc1cc(Nc2ncc(C(=O)OC(C)C)c(-c3cn(C)c4ccccc34)n2)c(OC)cc1N(C)CCN(C)C [Free Base]
recorded.value: < 0.01 mg/mL

compound: C=CC(=O)Nc1cc(Nc2ncc(C(=O)OC(C)C)c(-c3cn(C)c4ccccc34)n2)c(OC)cc1N(C)CCN(C)C.O=S(=O)(O)O [Sulfate]
recorded.value: > 240 mg/mL

###

Reported Purity, 80° C. by item:
- run.description: Stability stress testing (ambient light, 40° C./75% RH, 80° C., 7 days; XRPD and HPLC purity)
- Type: physicochemical
- measurement.parameters: HPLC purity after 7 days, open vial, 80° C.

compound: C=CC(=O)Nc1cc(Nc2ncc(C(=O)OC(C)C)c(-c3cn(C)c4ccccc34)n2)c(OC)cc1N(C)CCN(C)C.O=S(=O)(O)O [Sulfate]
Purity, 80° C.: 94.9
//
compound: C=CC(=O)Nc1cc(Nc2ncc(C(=O)OC(C)C)c(-c3cn(C)c4ccccc34)n2)c(OC)cc1N(C)CCN(C)C.O=C(O)C(=O)O [Oxalate]
Purity, 80° C.: 99.6
//
compound: C=CC(=O)Nc1cc(Nc2ncc(C(=O)OC(C)C)c(-c3cn(C)c4ccccc34)n2)c(OC)cc1N(C)CCN(C)C.Cl [HCl]
Purity, 80° C.: 91.3

###

Reported values of Purity, Ambient light for individual entries
- run.description: Stability stress testing (ambient light, 40° C./75% RH, 80° C., 7 days; XRPD and HPLC purity)
- Type: physicochemical
- measurement.parameters: HPLC purity after 7 days, open vial, ambient light, room temperature

compound: C=CC(=O)Nc1cc(Nc2ncc(C(=O)OC(C)C)c(-c3cn(C)c4ccccc34)n2)c(OC)cc1N(C)CCN(C)C.CS(=O)(=O)O [Mesylate]
Purity, Ambient light: 99.6
--
compound: C=CC(=O)Nc1cc(Nc2ncc(C(=O)OC(C)C)c(-c3cn(C)c4ccccc34)n2)c(OC)cc1N(C)CCN(C)C.Cc1ccc(S(=O)(=O)O)cc1 [Tosylate]
Purity, Ambient light: 99.5
--
compound: Br.C=CC(=O)Nc1cc(Nc2ncc(C(=O)OC(C)C)c(-c3cn(C)c4ccccc34)n2)c(OC)cc1N(C)CCN(C)C
Purity, Ambient light: 99.6
--
compound: C=CC(=O)Nc1cc(Nc2ncc(C(=O)OC(C)C)c(-c3cn(C)c4ccccc34)n2)c(OC)cc1N(C)CCN(C)C [Free Base]
Purity, Ambient light: 99.5
--
compound: C=CC(=O)Nc1cc(Nc2ncc(C(=O)OC(C)C)c(-c3cn(C)c4ccccc34)n2)c(OC)cc1N(C)CCN(C)C.Cl [HCl]
Purity, Ambient light: 95.1
--
compound: C=CC(=O)Nc1cc(Nc2ncc(C(=O)OC(C)C)c(-c3cn(C)c4ccccc34)n2)c(OC)cc1N(C)CCN(C)C.O=C(O)C(=O)O [Oxalate]
Purity, Ambient light: 99.6
